- ASSAY_INFO: Human HepG2 cell viability assay in 384 well format
- Format: toxicity, cell-based
- Set-up: dose 125 nL, time 70.5 hour; concentration not given beside the values
- RUN_PARAMETERS: HepG2 cells, read-out: Inhibition
Answer each item with its documented cytotoxicity at 70.5 h.
Numbers only, in %.

// solved cases for cytotoxicity at 70.5 h follow
# COMPOUND, READOUT_NAME, DATA_VALUE
measured = [
    ("O=C(Cc1ccccc1F)N1CCN(C(=O)c2ccoc2)CC1", "cytotoxicity at 70.5 h", -1.84),
    ("COc1ccccc1CN1CC(OC)CN(C(=O)CC(C)C)CC1=O (configuration not stated)", "cytotoxicity at 70.5 h", -5.03),
    ("CCCn1nc(C)c(-c2cncn2CC2(N(C)C)CCC(C)CC2)c1C (configuration not stated)", "cytotoxicity at 70.5 h", -5.71),
    ("COc1cc2[nH]c(C(=O)O)cc2c(OC)c1C", "cytotoxicity at 70.5 h", -5.57),
    ("COCCn1cnc2ccc(NC(=O)c3ccccn3)cc2c1=O", "cytotoxicity at 70.5 h", -9.53),
]

Batch request: cytotoxicity at 70.5 h for each of the following compounds.
1. CC(=O)Nc1nc2c(s1)C1(CCN(C)CC1)Nc1ccccc1S2
2. c1ccc2c(N3CCOC(Cn4cccn4)C3)ncnc2c1 (configuration not stated)
3. c1ccc(-c2nnn3c2COC(CNCC2CCOCC2)C3)cc1 (configuration not stated)
4. CCCNC(=O)Cn1cc(-c2ccccc2)cn1
5. O=C(CN1CCCS1(=O)=O)Nc1ccc(OC2CCCC2)cc1

1. 3.04
2. -4.3
3. -5.85
4. 1.15
5. -0.244

Batch request: cytotoxicity at 70.5 h for each of the following compounds.
1. COCC(=O)N1CCc2nc(C)nc(NC(C)C)c2CC1
2. COCCO[C@H]1CCN(c2ccc(C)nn2)[C@H]1Cc1cccnc1

[-6.06, 12.5]
